Hello, the source for this data is ChEMBL document CHEMBL3875216, in case you need it.

// reported inhibition per item
# Test system: Escherichia coli
# Assay procedure: Inhibition of LuxR-dependent quorum sensing activity in Escherichia coli MT102 harboring pJBA132 assessed as inhibition of OHHL-induced GFP expression at 1 mM measured after 24 hrs by fluorescence assay relative to control
Measured metric: inhibition (%)

• O=C(Cc1ccc(F)cc1)N[C@@H]1[C@@H](O)[C@H](O)[C@@H](CO)O[C@H]1O = 2
• CCCCCCCC(=O)N[C@@H]1[C@@H](O)[C@H](O)[C@@H](CO)O[C@H]1O = 48.2
• CCCC(=O)CC(=O)N[C@H]1[C@H](OC(C)=O)O[C@H](COC(C)=O)[C@@H](OC(C)=O)[C@@H]1OC(C)=O = 20.7
• CC(=O)OC[C@H]1O[C@@H](OC(C)=O)[C@H](NC(=O)Cc2ccc(Cl)cc2)[C@@H](OC(C)=O)[C@@H]1OC(C)=O = 8.5
• CC(=O)OC[C@H]1O[C@@H](OC(C)=O)[C@H](NC(=O)Cc2ccc(Br)cc2)[C@@H](OC(C)=O)[C@@H]1OC(C)=O = 36.1
• CCCCCC(=O)N[C@@H]1[C@@H](O)[C@H](O)[C@@H](CO)O[C@H]1O = 15.8
• CC(=O)OC[C@H]1O[C@@H](OC(C)=O)[C@H](NC(=O)CC(=O)CCCc2ccccc2)[C@@H](OC(C)=O)[C@@H]1OC(C)=O = 43.4
• CC(=O)OC[C@H]1O[C@@H](OC(C)=O)[C@H](NC(=O)Cc2ccc(F)cc2)[C@@H](OC(C)=O)[C@@H]1OC(C)=O = 1.3
• CCCC(=O)N[C@H]1[C@H](OC(C)=O)O[C@H](COC(C)=O)[C@@H](OC(C)=O)[C@@H]1OC(C)=O = 4.4
• CCCC(=O)N[C@@H]1[C@@H](O)[C@H](O)[C@@H](CO)O[C@H]1O = 93.5
• CC(=O)OC[C@H]1O[C@@H](OC(C)=O)[C@H](NC(=O)Cc2ccc(C(F)(F)F)cc2)[C@@H](OC(C)=O)[C@@H]1OC(C)=O = 27.2
• CCCCCCCCCC(=O)N[C@@H]1[C@@H](O)[C@H](O)[C@@H](CO)O[C@H]1O = 8.5
• CC(=O)OC[C@H]1O[C@@H](OC(C)=O)[C@H](NC(=O)CCCc2ccccc2)[C@@H](OC(C)=O)[C@@H]1OC(C)=O = 21.1
• COc1ccc(CC(=O)N[C@@H]2[C@@H](O)[C@H](O)[C@@H](CO)O[C@H]2O)cc1 = 20.2
• CCCCCC(=O)N[C@H]1[C@H](OC(C)=O)O[C@H](COC(C)=O)[C@@H](OC(C)=O)[C@@H]1OC(C)=O = 6.6
• CCCCCCCCCC(=O)N[C@H]1[C@H](OC(C)=O)O[C@H](COC(C)=O)[C@@H](OC(C)=O)[C@@H]1OC(C)=O = 5.1

----------
# Test system: Pseudomonas aeruginosa
# Assay procedure: Inhibition of LasR-dependent quorum sensing activity in Pseudomonas aeruginosa MH602 harboring GFP-fused […] LasB promoter assessed as inhibition of 3-oxo-dodecanoyl HSL-induced GFP expression at 500 uM measured after 8 hrs by fluorescence assay relative to control
Measured metric: inhibition (%)

• CC(=O)OC[C@H]1O[C@@H](OC(C)=O)[C@H](NC(=O)CC(=O)CCCc2ccccc2)[C@@H](OC(C)=O)[C@@H]1OC(C)=O = 6.5
• COc1ccc(CC(=O)N[C@H]2[C@H](OC(C)=O)O[C@H](COC(C)=O)[C@@H](OC(C)=O)[C@@H]2OC(C)=O)cc1 = 4.2
• O=C(Cc1ccc(F)cc1)N[C@@H]1[C@@H](O)[C@H](O)[C@@H](CO)O[C@H]1O = 9.2
• CCCCCCCCCCCC(=O)N[C@H]1[C@H](OC(C)=O)O[C@H](COC(C)=O)[C@@H](OC(C)=O)[C@@H]1OC(C)=O = 12.8

----------
# System: Pseudomonas aeruginosa
# Assay procedure: Growth inhibition of Pseudomonas aeruginosa MH602 at 2 mM after 24 hrs relative to control
# Reported conditions: MH602, 24 h, read-out: GI
inhibition at 2000 µM below 4% gives NO; inhibition at 2000 µM at or above it gives YES.

* CC(=O)OC[C@H]1O[C@@H](OC(C)=O)[C@H](NC(=O)CCc2c[nH]c3ccccc23)[C@@H](OC(C)=O)[C@@H]1OC(C)=O | NO
* CCCC(=O)N[C@@H]1[C@@H](O)[C@H](O)[C@@H](CO)O[C@H]1O | YES
* CCCCCC(=O)N[C@H]1[C@H](OC(C)=O)O[C@H](COC(C)=O)[C@@H](OC(C)=O)[C@@H]1OC(C)=O | YES
* CCCCCCCC(=O)N[C@H]1[C@H](OC(C)=O)O[C@H](COC(C)=O)[C@@H](OC(C)=O)[C@@H]1OC(C)=O | NO

----------
# Test system: Pseudomonas aeruginosa
# Assay procedure: Inhibition of LasR-dependent quorum sensing activity in Pseudomonas aeruginosa MH602 harboring GFP-fused […] LasB promoter assessed as inhibition of 3-oxo-dodecanoyl HSL-induced GFP expression at 1 mM measured after 24 hrs by fluorescence assay relative to control
Measured metric: inhibition (%)

* CC(=O)OC[C@H]1O[C@@H](OC(C)=O)[C@H](NC(=O)Cc2ccc(C(F)(F)F)cc2)[C@@H](OC(C)=O)[C@@H]1OC(C)=O | 5.6
* CC(=O)OC[C@H]1O[C@@H](OC(C)=O)[C@H](NC(=O)Cc2ccc(F)cc2)[C@@H](OC(C)=O)[C@@H]1OC(C)=O | 4.3
* O=C(Cc1ccc(Cl)cc1)N[C@@H]1[C@@H](O)[C@H](O)[C@@H](CO)O[C@H]1O | 7
* CC(=O)OC[C@H]1O[C@@H](OC(C)=O)[C@H](NC(=O)Cc2ccc(Cl)cc2)[C@@H](OC(C)=O)[C@@H]1OC(C)=O | 14.8
* CCCCCCCCCC(=O)N[C@H]1[C@H](OC(C)=O)O[C@H](COC(C)=O)[C@@H](OC(C)=O)[C@@H]1OC(C)=O | 7.8
* COc1ccc(CC(=O)N[C@H]2[C@H](OC(C)=O)O[C@H](COC(C)=O)[C@@H](OC(C)=O)[C@@H]2OC(C)=O)cc1 | 19.4

----------
Each entry below carries its recorded inhibition.
# Tested on: Pseudomonas aeruginosa
# Assay procedure: Inhibition of LasR-dependent quorum sensing activity in Pseudomonas aeruginosa MH602 harboring GFP-fused […] LasB promoter assessed as inhibition of 3-oxo-dodecanoyl HSL-induced GFP expression at 500 uM measured after 8 hrs by fluorescence assay relative to control
Measured metric: inhibition (%)

• CCCCCC(=O)CC(=O)N[C@H]1[C@H](OC(C)=O)O[C@H](COC(C)=O)[C@@H](OC(C)=O)[C@@H]1OC(C)=O = 4.9
• CCCCCCCC(=O)N[C@@H]1[C@@H](O)[C@H](O)[C@@H](CO)O[C@H]1O = 17.5
• CCCCCCCC(=O)N[C@H]1[C@H](OC(C)=O)O[C@H](COC(C)=O)[C@@H](OC(C)=O)[C@@H]1OC(C)=O = 14.4
• CC(=O)OC[C@H]1O[C@@H](OC(C)=O)[C@H](NC(=O)Cc2ccc(Br)cc2)[C@@H](OC(C)=O)[C@@H]1OC(C)=O = 4.4
• CC(=O)OC[C@H]1O[C@@H](OC(C)=O)[C@H](NC(=O)Cc2ccc(F)cc2)[C@@H](OC(C)=O)[C@@H]1OC(C)=O = 5.9
• CCCCCC(=O)N[C@@H]1[C@@H](O)[C@H](O)[C@@H](CO)O[C@H]1O = 12.9
• CC(=O)N[C@@H]1[C@@H](O)[C@H](O)[C@@H](CO)O[C@H]1O = 16.3
• CCCCCCCCCC(=O)N[C@H]1[C@H](OC(C)=O)O[C@H](COC(C)=O)[C@@H](OC(C)=O)[C@@H]1OC(C)=O = 10.2
• O=C(Cc1ccc(Br)cc1)N[C@@H]1[C@@H](O)[C@H](O)[C@@H](CO)O[C@H]1O = 6.6

----------
Property: inhibition at 500 µM; scope: individual compounds
# Test system: Escherichia coli
# Assay procedure: Growth inhibition of Escherichia coli MT102 at 500 uM after 24 hrs relative to control
# Reported conditions: MT102, 24 h, read-out: GI
Measured metric: inhibition at 500 µM (%)

* CC(=O)N[C@@H]1[C@@H](O)[C@H](O)[C@@H](CO)O[C@H]1O [N-ACETYLGLUCOSAMINE] | 14.7
* CC(=O)OC[C@H]1O[C@@H](OC(C)=O)[C@H](NC(=O)CC(=O)CCCc2ccccc2)[C@@H](OC(C)=O)[C@@H]1OC(C)=O | 0
* CC(=O)OC[C@H]1O[C@@H](OC(C)=O)[C@H](NC(=O)Cc2ccc(Cl)cc2)[C@@H](OC(C)=O)[C@@H]1OC(C)=O | 0
* CC(=O)OC[C@H]1O[C@@H](OC(C)=O)[C@H](NC(=O)Cc2ccc(C(F)(F)F)cc2)[C@@H](OC(C)=O)[C@@H]1OC(C)=O | 0.9
* O=C(Cc1ccc(F)cc1)N[C@@H]1[C@@H](O)[C@H](O)[C@@H](CO)O[C@H]1O | 19.4
* CC(=O)OC[C@H]1O[C@@H](OC(C)=O)[C@H](NC(=O)CCCc2ccccc2)[C@@H](OC(C)=O)[C@@H]1OC(C)=O | 5.2
* CCCCCC(=O)N[C@H]1[C@H](OC(C)=O)O[C@H](COC(C)=O)[C@@H](OC(C)=O)[C@@H]1OC(C)=O | 2.2
